target.of.assay: human PAI-1 (Homo sapiens, UniProt P05121)
Sequence (P05121 24-402): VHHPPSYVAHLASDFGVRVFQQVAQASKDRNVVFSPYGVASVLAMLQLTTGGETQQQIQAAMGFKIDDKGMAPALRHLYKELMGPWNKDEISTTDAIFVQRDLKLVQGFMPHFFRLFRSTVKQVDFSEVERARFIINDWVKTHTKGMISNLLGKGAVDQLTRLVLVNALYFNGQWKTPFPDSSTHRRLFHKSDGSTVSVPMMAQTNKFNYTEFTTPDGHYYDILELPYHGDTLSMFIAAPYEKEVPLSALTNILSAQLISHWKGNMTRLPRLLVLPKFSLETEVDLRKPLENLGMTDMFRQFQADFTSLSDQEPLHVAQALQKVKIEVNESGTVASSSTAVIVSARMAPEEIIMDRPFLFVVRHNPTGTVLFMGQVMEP
assay.method.text: PAI-1 inhibitory activity, t-PA with Spectrozyme t-PA chromogenic substrate (Reference Experimental Example 2)
Assay type: biochemical
Set-up: purchased Molecular Innovations, Inc. (USA)
measurement.conditions: compound 10 μm (head); system without compound after 120 minutes = 100%
assay.endpoint: PAI-1 activity %

Recorded PAI-1 activity %, per entry:
# compound, assay.endpoint, result
records = [
    ("CC(C)(Oc1cccc(-c2ccoc2)c1)C(=O)Nc1ccc(Cl)cc1C(=O)O [Example 44]", "PAI-1 activity %", "20.4%"),
    ("O=C(Nc1ccc(Cl)cc1C(=O)O)c1ccc(C2=CCOCC2)cc1 [Example 34]", "PAI-1 activity %", "45.1%"),
    ("O=C(Nc1ccc(Cl)cc1C(=O)[O-])c1ccc(-c2cccc3cccnc23)cc1.[Na+] [Example 67]", "PAI-1 activity %", "0.6%"),
    ("O=C(Nc1ccc(Cl)cc1C(=O)[O-])c1cccc(-c2cncc3ccccc23)c1.[Na+] [Example 64]", "PAI-1 activity %", "0.7%"),
    ("O=C(Nc1ccc(Cl)cc1C(=O)O)c1ccc(C2=CCOCC2)cc1 [Example 32]", "PAI-1 activity %", "1.7%"),
]

Problem: Which PAI-1 activity % is listed for COc1ccccc1-c1cccc(OCC(=O)Nc2ccc(Cl)cc2C(=O)O)c1 [Example 61] ?
Solution: 36.9%

Problem: Also, O=C(Nc1ccc(Cl)cc1C(=O)O)c1cccc(-c2cccc3ccccc23)c1 [Example 58] please.
Solution: 0.0%

Problem: Also, O=C(COc1cccc(C23CC4CC(CC(C4)C2)C3)c1)Nc1ccc(Cl)cc1C(=O)O [Example 30] please.
Solution: 1.3%

* * *

target.of.assay: human PAI-1 (Homo sapiens)
assay.method.text: PAI-1 inhibitory activity, t-PA with Spectrozyme t-PA chromogenic substrate (Reference Experimental Example 2)
Format: biochemical
Parameters: purchased Molecular Innovations, Inc. (USA)
measurement.conditions: compound 10 μm (head); system without compound after 120 minutes = 100%
Experimental: Subsequently, human-derived tissue plasminogen activator (t-PA) (manufactured by American Diagnostica, Inc. (USA); the same applies hereinafter) adjusted to 0.05 pmol/μL was added thereto, and the mixture was further incubated at 37° C. for 60 minutes. […] Free p-nitroaniline removed from the chromogenic substrate (Spectrozyme t-PA) by t-PA action was measured using a spectrophotometer at an absorbance of 405 nm at 20-minute intervals, for 120 minutes.
Label Condition not met if PAI-1 activity % falls below 0.3%; label Condition met in every other case.

# molecule, target.of.assay, class.name
rows = [
    ("O=C(Nc1ccc(Cl)cc1C(=O)[O-])c1cccc(-c2cccc3ncccc23)c1.[Na+]", "human PAI-1 (Homo sapiens)", "Condition met"),
]

Problem: Is PAI-1 activity % at least 0.3%? Consider CC(C)(C)c1cccc(OCC(=O)Nc2ccc(Cl)cc2C(=O)O)c1 [Example 18]
Solution: Condition met

Problem: Also, CC(C)(C)c1cccc(OCC(=O)Nc2ccc(Cl)cc2C(=O)O)c1 [Example 16] please.
Solution: Condition met

Problem: Also, O=C(O)c1cc(Cl)ccc1NC(=O)C1CCCN(C(=O)c2cccc(-c3ccccc3)c2)C1 (centres unmarked) please.
Solution: Condition met

Problem: Also, O=C(Nc1ccc(Cl)cc1C(=O)O)c1ccc(C(=O)C23CC4CC(CC(C4)C2)C3)cc1 please.
Solution: Condition met

Problem: Also, O=C(Nc1ccc(Cl)cc1C(=O)[O-])c1cccc(-c2cccc3cnccc23)c1.[Na+] please.
Solution: Condition not met

* * *

target.of.assay: human PAI-1 (Homo sapiens)
assay.method.text: PAI-1 inhibitory activity, t-PA with Spectrozyme t-PA chromogenic substrate (Reference Experimental Example 2)
Type: biochemical
Design: purchased Molecular Innovations, Inc. (USA)
measurement.conditions: Tables 5 to 7, second value column; head prints no concentration
As shown below, each of these molecules has a reported PAI-1 activity % value.
Record the result as number plus unit.

Recorded PAI-1 activity %, per entry:
# molecule, target.of.assay, PAI-1 activity %
measured = [
    ("O=C(Nc1ccc(Cl)cc1C(=O)O)c1cccc(C2=CCCCC2)c1 [Example 79]", "human PAI-1 (Homo sapiens)", "44.5%"),
    ("O=C(CN1CCN(C(c2ccccc2)c2ccccc2)CC1)Nc1ccc(Cl)cc1C(=O)O [Example 77]", "human PAI-1 (Homo sapiens)", "69.6%"),
]

Please look at the following molecule next.
Problem: Item: O=C(/C=C/c1cccc(-c2cccnc2)c1)Nc1ccc(Cl)cc1C(=O)[O-].[Na+] [Example 103] Test system: human PAI-1 (Homo sapiens) Read-out: PAI-1 activity % Value: ?
Solution: 92.3%

* * *

target.of.assay: UniProt:P05121
assay.method.text: PAI-1 inhibitory activity, t-PA with Spectrozyme t-PA chromogenic substrate (Reference Experimental Example 2)
Type: biochemical
Set-up: purchased Molecular Innovations, Inc. (USA)
measurement.conditions: Tables 5 to 7, first value column; head prints no concentration
As shown below, each of these compounds has a reported PAI-1 activity % value.
Expressed in %, but write only the number.

# compound, target.of.assay, readout.number
rows = [
    ("O=C(C=Cc1ccc(C23CC4CC(CC(C4)C2)C3)cc1)Nc1ccc(Cl)cc1C(=O)O [Example 94]", "UniProt:P05121", 7.4),
]

Please look at the following compound next.
Problem: Which PAI-1 activity % is listed for O=C(Nc1ccc(C23CC4CC(CC(C4)C2)C3)cc1)C(=O)Nc1ccc(Cl)cc1C(=O)[O-].[Na+] [Example 106] ?
Solution: 26.3

* * *

target.of.assay: UniProtKB P05121
assay.method.text: PAI-1 inhibitory activity, t-PA with Spectrozyme t-PA chromogenic substrate (Reference Experimental Example 2)
Assay type: biochemical
Set-up: purchased Molecular Innovations, Inc. (USA)
measurement.conditions: Tables 5 to 7, second value column; head prints no concentration
assay.endpoint: PAI-1 activity % (%)
Expressed in %, but write only the number.

# molecule, PAI-1 activity %, %
records = [
    ("O=C(Nc1ccc(CCC2CCCCC2)cc1C(=O)O)c1ccc(C2CCCCC2)cc1 [Example 93]", 0.0),
    ("O=C(/C=C/c1cccc(-c2cccc3cccnc23)c1)Nc1ccc(Cl)cc1C(=O)[O-].[Na+] [Example 101]", 24.7),
    ("O=C(/C=C(/Cl)C1CCCCC1)Nc1ccc(Cl)cc1C(=O)O [Example 91]", 96.9),
    ("O=C(Nc1ccc(Cl)cc1C(=O)[O-])c1cccc(OCc2ccc3ccccc3n2)c1.[Na+] [Example 99]", 87.8),
    ("Cc1ccc(C23CC4CC(CC(C(=O)Nc5ccc(Cl)cc5C(=O)O)(C4)C2)C3)cc1 [Example 86]", 63.5),
]

Problem: Item: O=C(Nc1ccc(C23CC4CC(CC(C4)C2)C3)cc1)C(=O)Nc1ccc(Cl)cc1C(=O)[O-].[Na+] [Example 106] Test system: UniProtKB P05121 Read-out: PAI-1 activity % Value: ?
Solution: 88.4

Problem: Also, O=C(Nc1ccc(Cl)cc1C(=O)[O-])c1ccc(OCc2ccc3ccccc3n2)cc1.[Na+] [Example 100] please.
Solution: 92.1

Problem: Also, O=C(COc1ccc(C2CCCCC2)cc1)Nc1ccc(Cl)cc1C(=O)O [Existing compound 3, reference compound] please.
Solution: 36.3

* * *

target.of.assay: human PAI-1 (Homo sapiens)
assay.method.text: PAI-1 inhibitory activity, t-PA with Spectrozyme t-PA chromogenic substrate (Reference Experimental Example 2)
Type: biochemical
Parameters: purchased Molecular Innovations, Inc. (USA)
measurement.conditions: Tables 5 to 7, second value column; head prints no concentration
As shown below, each of these molecules has a reported PAI-1 activity % value.
Expressed in %, but write only the number.

Recorded PAI-1 activity %, per entry:
# input.smiles, target.of.assay, PAI-1 activity % [%]
records = [
    ("O=C(C=Cc1ccc(C23CC4CC(CC(C4)C2)C3)cc1)Nc1ccc(Cl)cc1C(=O)O", "human PAI-1 (Homo sapiens)", 3.5),
    ("O=C([O-])c1cc(Cl)ccc1NC(=O)c1cc(-c2ccccc2)nc2ccccc12.[Na+]", "human PAI-1 (Homo sapiens)", 100.0),
    ("O=C(Nc1ccc(C2=CCCCC2)cc1C(=O)O)c1ccc(C2CCCCC2)cc1", "human PAI-1 (Homo sapiens)", 1.0),
    ("C#Cc1ccc(NC(=O)c2ccc(C3CCCCC3)cc2)c(C(=O)O)c1", "human PAI-1 (Homo sapiens)", 80.5),
]

Problem: Which PAI-1 activity % is listed for Cl.O=C(O)c1cc(Cl)ccc1NC(=O)N1CCN(C(c2ccccc2)c2ccccc2)CC1 ?
Solution: 86.4

* * *

target.of.assay: human PAI-1 (Homo sapiens, UniProt P05121)
assay.method.text: PAI-1 inhibitory activity, t-PA with Spectrozyme t-PA chromogenic substrate (Reference Experimental Example 2)
Type: biochemical
Parameters: purchased Molecular Innovations, Inc. (USA)
measurement.conditions: Tables 5 to 7, first value column; head prints no concentration
Label 0.0 if PAI-1 activity % falls below 0.3%; label 1.0 in every other case.

# input.smiles, class.name
data = [
    ("O=C(Nc1ccc(CCC2CCCCC2)cc1C(=O)O)c1ccc(C2CCCCC2)cc1", 0.0),
]

Problem: Is PAI-1 activity % at least 0.3%? Consider O=C(COC(c1ccccc1)c1ccccc1)Nc1ccc(Cl)cc1C(=O)O
Solution: 1.0

Problem: Also, O=C(/C=C/c1cccc(-c2cccc3cccnc23)c1)Nc1ccc(Cl)cc1C(=O)[O-].[Na+] please.
Solution: 0.0

Problem: Also, Cl.O=C(O)c1cc(Cl)ccc1NC(=O)N1CCN(C(c2ccccc2)c2ccccc2)CC1 please.
Solution: 1.0

Attribution: patent US20220340665A1
